The values you see were collected from the supplement of paper PMC11451515.

system: NOMO1; experiment: cell viability relative to DMSO control; higher = less cytotoxic; conditions: RPMI 5 mM glucose + 10% FBS; 48 h; 0.00234 µM
measured attribute: cell viability
Reply with the number and its unit after it.

Example results:
O=C(c1cncc(Br)c1)N1CCC(N2CCCC2)CC1 = 95.9%
CN(CCOc1ccc(CC2SC(=O)NC2=O)cc1)c1ccccn1 (centres undefined) = 113%
CCn1nnc2c(N3CCOCC3)nc(-c3ccc(NC(=O)Nc4ccc(C(=O)N5CCN(C)CC5)cc4)cc3)nc21 = 107%

# ---- query compound ----
Inquiry: Output measured cell viability for this item: Cc1c(N)nc([C@H](CC(N)=O)NC[C@@H](N)C(N)=O)nc1C(=O)N[C@H](C(=O)N[C@@H](C)[C@H](O)[C@@H](C)C(=O)N[C@@H](C(=O)NCCc1nc(-c2nc(C(=O)NCCC[S+](C)C)cs2)cs1)[C@@H](C)O)C(O[C@H]1O[C@H](CO)[C@H](O)[C@@H](O)[C@H]1O[C@H]1O[C@H](CO)[C@@H](O)[C@H](OC(N)=O)[C@@H]1O)c1c[nH]cn1 (some centres undefined)
Reply text: 100%

---

Property: AUC of viability dose-response curve; scope: individual compounds
system: SEM cells; assay: AUC of viability dose-response curve (% viability x log10 dose units); higher = less sensitive; details: RPMI 5 mM glucose + 10% FBS; 48 h
Give the figure by itself; no unit, no explanation.

# annotated cases, reported AUC of viability dose-response curve shown
Cc1ccc([C@@H]2O[C@H](CO)[C@@H](O)[C@H](O)[C@H]2O)cc1Cc1ccc(-c2ccc(F)cc2)s1 = 467
C[C@@H]1C(=O)O[C@H]2CC34[C@H]5C[C@@H](C(C)(C)C)C36[C@@H](OC(=O)[C@@H]6O)O[C@@]4(C(=O)O5)[C@]21O (some centres undefined) = 467
O=C(c1cncc(Br)c1)N1CCC(N2CCCC2)CC1 = 464

Inquiry: // fetch AUC of viability dose-response curve given entry `COc1ccc(/C=C\c2cc(OC)c(OC)c(OC)c2)cc1NC(=O)[C@H](N)CO`
Reply text: 167

---

Below: a set of entries, each annotated with reported cell viability.
system: P12-Ichikawa; test: cell viability relative to DMSO control; higher = less cytotoxic; conditions: RPMI 5 mM glucose + 10% dialyzed FBS; 48 h; 0.0211 µM
# output: bare number, implied unit %

NCCCC(N)(C(=O)O)C(F)F (stereo not drawn) = 118
CC1(C)SCCN([S+](=O)([O-])c2ccc(OCC#CCO)cc2)[C@H]1C(=O)NO = 103
Cc1cn2cc(C(=O)N(C)CCO)cc(N[C@@H]3CCOc4cccc(C)c43)c2n1 = 116
CN(C)CCCC1(c2ccc(F)cc2)OCc2cc(C#N)ccc21 (stereo not drawn) = 92.7
CCC(C)CCCCC(=O)N[C@@H](CCN)C(=O)NC(C(=O)N[C@H](CCN)C(=O)N[C@@H]1CCNC(=O)C([C@@H](C)O)NC(=O)[C@@H](CCN)NC(=O)[C@@H](CCN)NC(=O)[C@@H](CC(C)C)NC(=O)[C@H](Cc2ccccc2)NC(=O)[C@H](CCN)NC1=O)[C@@H](C)O (stereo partly drawn) = 115

Inquiry: State the measured cell viability (P12-Ichikawa) of `COc1c(Cl)cc2c([nH]c3cnccc32)c1NC(=O)c1cccnc1C`
Reply text: 96.9

Inquiry: Report value: cell viability, system: P12-Ichikawa, compound: CN(CCOc1ccc(CC2SC(=O)NC2=O)cc1)c1ccccn1 (stereo not drawn)
Reply text: 119

Inquiry: Fill in: cell viability on P12-Ichikawa, entry `Nc1n[nH]c2nnc(-c3c(-c4ccccc4)nn4ccccc34)cc12`
Reply text: 121

---

test system: SEM cells; experiment: cell viability relative to DMSO control; higher = less cytotoxic; details: HPLM + 10% dialyzed FBS; 48 h; 0.00702 µM
Each entry below lists one item and its recorded cell viability value.
Hi! Could you send only the number? It should be in %, unit omitted.

Guide cases for cell viability, answers given:
CC(C)c1onc(-c2c(Cl)cccc2Cl)c1COc1ccc(/C=C/c2cccc(C(=O)O)c2)c(Cl)c1 = 114
Cc1cc(Nc2cc(N3CCN(C)CC3)nc(/C=C/c3ccccc3)n2)n[nH]1 = 112
CCn1nnc2c(N3CCOCC3)nc(-c3ccc(NC(=O)Nc4ccc(C(=O)N5CCN(C)CC5)cc4)cc3)nc21 = 87.4
O=C(O)c1cc(O)c2c(c1)C(=O)c1cccc(O)c1C2=O = 103
NC1=NC(=O)N2CC12 (centres undefined) = 87.7
C[S+](=O)([O-])Oc1ccc2c(NC(N)=O)c(C(=O)c3ccc(Cl)cc3Cl)oc2c1 = 107

Inquiry: Recall and state the measured cell viability for `Cc1cc(Nc2ncc3c(n2)N(C)C(=O)N(c2cc(NC(=O)c4cccc(C(F)(F)F)c4)ccc2C)C3)n(C)n1` .
Reply text: 101

Inquiry: Answer with reported cell viability of `NC(=O)c1cccc(-c2cc(Nc3ccc(OC(F)(F)F)cc3)ncn2)c1`
Reply text: 95.5

Inquiry: For the compound `O=C(O)c1ccc(O)c2ncc(N3CCOCC3)cc12` , give its measured cell viability value.
Reply text: 128

---

system: P12-Ichikawa; test: cell viability relative to DMSO control; higher = less cytotoxic; details: HPLM + 10% dialyzed FBS; 48 h; 1.71 µM
measured attribute: cell viability

Check out these entries, answers already filled in.
O=C(O)c1cc(O)c2c(c1)C(=O)c1cccc(O)c1C2=O = 110%
CC(=O)OC[C@@H]1O[C@H]([C@H](OC(C)=O)[C@@H]1OC(C)=O)N2\C=C/C(=O)NC2=O = 110%
NCCCC(N)(C(=O)O)C(F)F (stereo not given) = 112%
Oc1cc(-c2nc(-c3ccccc3)[nH]c2-c2ccncc2)ccc1Cl = 101%

Attention now shifts to the item below.
Inquiry: Return cell viability (reported value) for this compound: `O=C1NC(=O)/C(=C/c2ccc3nccnc3c2)S1`
Reply text: 116%

---

test system: NOMO1; assay: cell viability relative to DMSO control; higher = less cytotoxic; settings: RPMI 5 mM glucose + 10% dialyzed FBS; 48 h; 0.19 µM
Reported cell viability values for the following compounds.
The reply should be a number in %, with the unit left off.

O=C(O)c1cc(O)c2c(c1)C(=O)c1cccc(O)c1C2=O = 107
N[S+](=O)([O-])c1ccc(Nc2nc(OCC3CCCCC3)c3[nH]cnc3n2)cc1 = 116
Cc1cc(Nc2ncc3c(n2)N(C)C(=O)N(c2cc(NC(=O)c4cccc(C(F)(F)F)c4)ccc2C)C3)n(C)n1 = 132
Cc1cn2cc(C(=O)N(C)CCO)cc(N[C@@H]3CCOc4cccc(C)c43)c2n1 = 110
COc1ccc(CCC(=O)c2c(O)cc(O[C@@H]3O[C@H](CO)[C@@H](O)[C@H](O)[C@H]3O[C@@H]3O[C@@H](C)[C@H](O)[C@@H](O)[C@H]3O)cc2O)cc1O = 116
CN1CCc2c(c3ccccc3n2Cc2ccc(C(=O)NO)cc2)C1 = 87.7

Inquiry: Specify measured cell viability for `Nc1ccc(C(=O)Nc2cccc(-c3nc(N4CCOCC4)c4oc5ncccc5c4n3)c2)cn1` .
Reply text: 119

Inquiry: Name the recorded cell viability of the compound listed here: `COc1c(Cl)cc2c([nH]c3cnccc32)c1NC(=O)c1cccnc1C`
Reply text: 105

Inquiry: Find the measured cell viability of CN(C)CCCC1(c2ccc(F)cc2)OCc2cc(C#N)ccc21 (configuration not stated) and report it.
Reply text: 84.5

Inquiry: Fill in cell viability for record `CCNC(=O)Nc1ccc(Oc2ncnc(N)c2/C=N/OC)cc1Cl`
Reply text: 109

Inquiry: Query cell viability for C[C@]12CCC3c4ccc(O)cc4CCC3C1CCC2=O (some centres not stated)
Reply text: 86.5

Inquiry: Identify cell viability associated with the compound `C[S+](=O)([O-])Oc1ccc2c(NC(N)=O)c(C(=O)c3ccc(Cl)cc3Cl)oc2c1`
Reply text: 116

Inquiry: Given the compound `COc1cc(NCc2ccc3nc(N)nc(N)c3c2C)cc(OC)c1OC` , write its reported cell viability.
Reply text: 107

Inquiry: # return recorded cell viability for entry `C[C@H](NC(=O)Cc1cc(F)cc(F)c1)C(=O)N[C@H](C(=O)OC(C)(C)C)c1ccccc1`
Reply text: 92.9

Inquiry: Report cell viability for CO[C@H]1CCC(O[C@H]2C[C@H]([C@]3(C)CC[C@]4(C[C@H](O)[C@@H](C)[C@@H]([C@@H](C)/C=C(\C)C(=O)[C@H](C)C[C@H](C)C(=O)[O-])O4)O3)O[C@]3(O[C@@H]([C@H]4O[C@@](O)(CO)[C@H](C)C[C@@H]4C)C[C@@H]3C)[C@@H]2C)O[C@@H]1C (some centres not stated)
Reply text: 114

Inquiry: Look up and report measured cell viability for this entry: `CC(=O)SC[C@@H](C)C(=O)N1CCC[C@H]1C(=O)N[C@@H](Cc1ccccc1)C(=O)O`
Reply text: 89.5

Inquiry: Kindly indicate its recorded cell viability. Item: `CC(C)c1onc(-c2c(Cl)cccc2Cl)c1COc1ccc(/C=C/c2cccc(C(=O)O)c2)c(Cl)c1`
Reply text: 133

Inquiry: Tell me cell viability reported for C[C@]1(O)CC(C1)C2=NC(=C3[N]2C=CN=C3N)C4=CC5=C(C=C4)C=CC(=N5)C6=CC=CC=C6 (configuration not stated)
Reply text: 65.8

Inquiry: Could you please provide reported cell viability for `CC(C)(N)c1ccc(-c2nc3ccccc3nc2-c2ccccc2)cc1` ? Thanks!
Reply text: 20.3

Inquiry: # return recorded cell viability for entry `OC(=O)\C1=C\N(C2CC2)C3=CC(=C(F)C=C3C1=O)N4CCNCC4`
Reply text: 122

Inquiry: State its cell viability for this compound: `COc1ccc(F)c(F)c1C(=O)c1cnc(NC2CCN([S+](C)(=O)[O-])CC2)nc1N`
Reply text: 102

Inquiry: Tell me cell viability reported for `CCOC(=O)c1c(C)n(C)c2ccc(O)cc12`
Reply text: 119
